Give measured CC50 for each item. Keep answers brief.
# method.description: Cytotoxicity against African green monkey Vero cells incubated for 5 days by neutral red uptake assay
# Type: toxicity, cell-based
# stated.conditions: chlorocebus sabaeus, vero, 120 h; time 5 day

Examples with their reported CC50 follow.
C=CS(=O)(=O)N(c1ccc(-c2ccccc2)cc1)[C@@H](C(=O)N[C@@H](C)c1ccccc1)c1cccnc1 = 18.4 µM
C[C@H](NC(=O)C(c1cccnc1)N(C(=O)C#CC1CC1)c1ccc(-c2ccccc2)cc1)c1ccccc1 (stereo not given in full) = 102 µM

For each listed entry, give its CC50.
1. C[C@H](NC(=O)[C@H](c1cccnc1)N(C(=O)C#CCCl)c1ccc(-c2ccccc2)cc1)c1ccccc1
2. COc1ccc(/C=C(\C#N)C(=O)N(c2ccc(-c3ccccc3)cc2)[C@@H](C(=O)N[C@@H](C)c2ccccc2)c2cccnc2)cc1
3. C[C@H](NC(=O)[C@@H](c1cccnc1)N(C(=O)C#CCCl)c1ccc(-c2ccccc2)cc1)c1ccccc1

### Response
["2.2 µM", "> 100 µM", "2 µM"]

----------
# method.description: Cytotoxicity against African green monkey Vero cells incubated for 5 days by neutral red uptake assay
# Assay type: toxicity, cell-based
# stated.conditions: chlorocebus sabaeus, Vero cells; time 5 day
reported.property: CC50 at 120 h

For orientation, consider the following solved cases.
CCC(CC)COC(=O)[C@H](C)N[P@](=O)(OC[C@H]1O[C@@](C#N)(c2ccc3c(N)ncnn23)[C@H](O)[C@@H]1O)Oc1ccccc1 [REMDESIVIR] = > 10 µM
C#CC(=O)N(c1ccc(-c2ccccc2)cc1)[C@@H](C(=O)N[C@@H](C)c1ccccc1)c1cccnc1 = 2.06 µM

Next, consider the following compound.
CC50 at 120 h recorded for this compound, C=C(C(=O)N(c1ccc(-c2ccccc2)cc1)C(C(=O)N[C@@H](C)c1ccccc1)c1cccnc1)C(F)(F)F (stereo partly drawn) , is < 3.9 µM

----------
# target.entity: Replicase polyprotein 1ab (Severe acute respiratory syndrome coronavirus 2)
# method.description: Inhibition of MPro of SARS CoV-2 BetaCoV/Wuhan/WIV04/2019 preincubated for 30 mins followed by substrate addition measured for 1 hr by FRET assay
reported.property: IC50

C[C@H](NC(=O)C(c1cccnc1)N(C(=O)/C=C\I)c1ccc(-c2ccccc2)cc1)c1ccccc1 (stereo partly drawn) = > 20 µM
C[C@H](NC(=O)C(c1cccnc1)N(C(=O)C#CC(C)(C)F)c1ccc(-c2ccccc2)cc1)c1ccccc1 (stereo partly drawn) = > 20 µM
C[C@H](NC(=O)[C@H](c1cccnc1)N(C(=O)C#CCC#N)c1ccc(-c2ccccc2)cc1)c1ccccc1 = > 20 µM
COC(=O)/C=C/C(=O)N(c1ccc(-c2ccccc2)cc1)C(C(=O)N[C@@H](C)c1ccccc1)c1cccnc1 (stereo partly drawn) = 3.97 µM

Please state, for each entry, its recorded IC50.
1. C[C@H](NC(=O)C(c1cccnc1)N(C(=O)C1(C#N)CCOCC1)c1ccc(-c2ccccc2)cc1)c1ccccc1 (stereo partly drawn)
2. CO/C=C/C(=O)N(c1ccc(-c2ccccc2)cc1)C(C(=O)N[C@@H](C)c1ccccc1)c1cccnc1 (stereo partly drawn)
3. C=C(C)C(=O)N(c1ccc(-c2ccccc2)cc1)C(C(=O)N[C@@H](C)c1ccccc1)c1cccnc1 (stereo partly drawn)
4. C[C@H](NC(=O)C(c1cccnc1)N(C(=O)C#CC1CC1)c1ccc(-c2ccccc2)cc1)c1ccccc1 (stereo partly drawn)

### Response
1: > 20 µM; 2: > 20 µM; 3: > 20 µM; 4: 0.85 µM

----------
# method.description: Cytotoxicity against African green monkey Vero cells incubated for 5 days by neutral red uptake assay
# Type: toxicity, cell-based
# stated.conditions: chlorocebus sabaeus, Vero cells; time 5 day
Would you kindly list CC50 at 120 h for each of these compounds?
One number for each entry, in µM.

The following compounds have reported results that may help.
C[C@H](NC(=O)C(c1cccnc1)N(C(=O)C#CC(C)(C)O)c1ccc(-c2ccccc2)cc1)c1ccccc1 (stereo partly drawn) = 19.1
COC(=O)/C=C/C(=O)N(c1ccc(-c2ccccc2)cc1)C(C(=O)N[C@@H](C)c1ccccc1)c1cccnc1 (stereo partly drawn) = 8.9
C#CC(=O)N(c1ccc(-c2ccccc2)cc1)[C@H](C(=O)N[C@@H](C)c1ccccc1)c1cccnc1 = 2.8

Give me CC50 at 120 h for each of these compounds, listed below.
1. CCC#CC(=O)N(c1ccc(-c2ccccc2)cc1)C(C(=O)N[C@@H](C)c1ccccc1)c1cccnc1 (stereo partly drawn)
2. CC#CC(=O)N(c1ccc(-c2ccccc2)cc1)C(C(=O)N[C@@H](C)c1ccccc1)c1cccnc1 (stereo partly drawn)

### Response
38.6
18

----------
# method.description: Cytotoxicity against African green monkey Vero cells
# Type: toxicity, cell-based
# stated.conditions: chlorocebus sabaeus
reported.property: CC50

# CC50 of C=C(Cl)C(=O)N(c1ccc(-c2ccccc2)cc1)C(C(=O)N[C@@H](C)c1ccccc1)c1cccnc1 (stereo partly specified) = < 10 µM

----------
Would you kindly list pIC50 for each of these compounds?
# target.entity: Replicase polyprotein 1ab (Severe acute respiratory syndrome coronavirus 2, UniProt P0DTD1)
# method.description: Inhibition of MPro of SARS CoV-2 BetaCoV/Wuhan/WIV04/2019 preincubated for 30 mins followed by substrate addition measured for 1 hr by FRET assay
pIC50: −log10 of the molar value.

C=C(C(=O)N(c1ccc(-c2ccccc2)cc1)C(C(=O)N[C@@H](C)c1ccccc1)c1cccnc1)C(F)(F)F (stereo not given in full) = 5.36
C[C@H](NC(=O)C(c1cccnc1)N(C(=O)C1(C#N)CCN(C(=O)OC(C)(C)C)CC1)c1ccc(-c2ccccc2)cc1)c1ccccc1 (stereo not given in full) = < 4.70
C#CCCC(=O)N(c1ccc(-c2ccccc2)cc1)C(C(=O)N[C@@H](C)c1ccccc1)c1cccnc1 (stereo not given in full) = < 4.70
C[C@H](NC(=O)C(c1cccnc1)N(C(=O)C1=CCCCC1)c1ccc(-c2ccccc2)cc1)c1ccccc1 (stereo not given in full) = < 4.70
CCC#CC(=O)N(c1ccc(-c2ccccc2)cc1)C(C(=O)N[C@@H](C)c1ccccc1)c1cccnc1 (stereo not given in full) = 5.78
C[C@H](NC(=O)C(c1cccnc1)N(C(=O)C(F)(F)S(=O)(=O)F)c1ccc(-c2ccccc2)cc1)c1ccccc1 (stereo not given in full) = < 4.70
C[C@H](NC(=O)C(c1cccnc1)N(C(=O)/C=C/Br)c1ccc(-c2ccccc2)cc1)c1ccccc1 (stereo not given in full) = < 4.70
CC(C)C#CC(=O)N(c1ccc(-c2ccccc2)cc1)C(C(=O)N[C@@H](C)c1ccccc1)c1cccnc1 (stereo not given in full) = 5.38
C[C@H](NC(=O)C(c1cccnc1)N(C(=O)C1=CC(=O)CC1)c1ccc(-c2ccccc2)cc1)c1ccccc1 (stereo not given in full) = < 4.70

Proceed to the following item.
Form: compound = C/C=C(\C)C(=O)N(c1ccc(-c2ccccc2)cc1)C(C(=O)N[C@@H](C)c1ccccc1)c1cccnc1 (stereo not given in full) ; pIC50 = < 4.70

----------
# method.description: Cytotoxicity against African green monkey Vero cells incubated for 5 days by neutral red uptake assay
# Assay type: toxicity, cell-based
# stated.conditions: chlorocebus sabaeus, Vero cells; time 5 day
reported.property: CC50 at 120 h

Give one value of CC50 at 120 h per listed compound.
1. C=C(Br)C(=O)N(c1ccc(-c2ccccc2)cc1)C(C(=O)N[C@@H](C)c1ccccc1)c1cccnc1 (stereo partly drawn)
2. C[C@H](NC(=O)C(c1cccnc1)N(C(=O)/C=C/C(=O)O)c1ccc(-c2ccccc2)cc1)c1ccccc1 (stereo partly drawn)
3. C[C@H](NC(=O)[C@@H](c1cccnc1)N(C(=O)C#CCC#N)c1ccc(-c2ccccc2)cc1)c1ccccc1

### Response
1: < 3.9 µM; 2: > 250 µM; 3: > 100 µM
